- Test system: mice
- assay-name: Neuropharmacological Assay (SmartCube)
- Assay type: in vivo
- test-context: mice, i.p. 15 min before test, most efficacious dose(s) of 3 doses
outcome-measure: SD: sedative hypnotic (SmartCube probability)

• CNC[C@@H]1OCC(C)(C)c2ccccc21 [Example 24] = ++ (5%≤ ++ <25%)
• CNC[C@@H]1OC[C@@H](C)c2ccccc21 [Example 20] = ++ (5%≤ ++ <25%)
• CNC[C@@H]1OCCc2cccc(C#N)c21 [Example 45] = + (LOQ≤ + <5%)
• CNC[C@H]1OC[C@@H](O)c2ccc3c(c21)OCO3 (single isomer, unassigned) [Example 113] = + (LOQ≤ + <5%)
• Cc1cccc2c1CCO[C@@H]2CN [Example 72, (S)-(5-methylisochroman-1-yl)methanamine] = + (LOQ≤ + <5%)

GET /values?readout=SD: sedative hypnotic (SmartCube probability)&item= CNC[C@@H]1OCCc2cc(F)ccc21 [Example 17]
+ (LOQ≤ + <5%)

Check CNC[C@@H]1OC[C@@H](O)c2ccc3c(c21)OCO3 (single isomer, unassigned) [Example 111] too.
+ (LOQ≤ + <5%)

Same read-out for CNC[C@@H]1OCCc2ccc3c(c21)OCCO3 [Example 10] ?
+ (LOQ≤ + <5%)

Next compound: CNC[C@@H]1OCCCc2cccc(F)c21 [Example 61]
+ (LOQ≤ + <5%)

Input NC[C@@H]1OCCc2c(F)cccc21 [Example 29, (R)-(5-fluoroisochroman-1-yl)methanamine]
+ (LOQ≤ + <5%)

###

- System: mice
- assay-name: Neuropharmacological Assay (SmartCube)
- Type: in vivo
- test-context: mice, i.p. 15 min before test, most efficacious dose(s) of 3 doses
outcome-measure: SD: sedative hypnotic (SmartCube probability)

Examples from the recorded data:
- NC[C@@H]1OCCc2c(Cl)cccc21 [Example 67, (R)-(5-chloroisochroman-1-yl)methanamine]: + (LOQ≤ + <5%)
- CNC[C@@H]1OCCc2c(O)cc3c(c21)OCO3 (single isomer, unassigned): + (LOQ≤ + <5%)
- NC[C@H]1OCCc2cccc(Cl)c21 [Example 70, (S)-(8-chloroisochroman-1-yl)methanamine]: ++ (5%≤ ++ <25%)
- CNC[C@@H]1OC[C@H](O)c2cccc(F)c21: ++ (5%≤ ++ <25%)

Which SD: sedative hypnotic (SmartCube probability) value is on record for NC[C@H]1OCCc2ccc3c(c21)OCO3 ?
+ (LOQ≤ + <5%)

Cool, now CNC[C@@H]1OCCc2c(C)cccc21
+ (LOQ≤ + <5%)

###

- Test system: mice
- assay-name: Neuropharmacological Assay (SmartCube)
- Assay type: in vivo
- test-context: mice, i.p. 15 min before test, most efficacious dose(s) of 3 doses
outcome-measure: AX: anxiolytic (SmartCube probability)

* CNC[C@H]1OCCc2cccc(F)c21 [Example 25] | + (LOQ≤ + <5%)
* CNC[C@H]1OCCc2c(C#N)cccc21 [Example 46] | ++ (5%≤ ++ <25%)
* CNC[C@H]1OCCCc2cccc(F)c21 [Example 60] | ++ (5%≤ ++ <25%)
* Fc1cccc2c1[C@H](CNC1CCC1)OCC2 [Example 97] | ++ (5%≤ ++ <25%)
* CNC(C)C1OCCc2ccc3c(c21)OCO3 (stereo not drawn) [Example 57] | ++ (5%≤ ++ <25%)

Here is another molecule to look at.
If you can, please state the reported AX: anxiolytic (SmartCube probability) value of CNC[C@@H]1OCCc2c1ccc1c2OCO1 [Example 4] .
+ (LOQ≤ + <5%)

Cited source for all entries: patent US10196403B2
